I'd be grateful if you could share measured TGI for these entries.
Tested on: HL-60(TB) leukemia
Test: NCI tumour cell line growth inhibition, 48 h

>>> measurement("[N-]=[N+]=NC1OC(=O)C(Cl)=C1N=P(c1ccccc1)(c1ccccc1)c1ccccc1 (stereo not given)")
"> 10 µM"

# map each molecule to its TGI
1. CC(Oc1ccc2c(-c3ccccc3)cc(=O)oc2c1)C(=O)O (stereo not given)
2. O=S(=O)(NC1=NCCN1C(=S)SN1CCn2c1nsc2=S)c1cccc2ccccc12

[reply]
1. > 100 µM
2. 99.3 µM

# map each molecule to its TGI
1. Nc1nc(Cl)c(N)c(NCC2(CO)CC2)n1
2. O=C(/C=C/c1ccccc1)CSc1ncn[nH]1

[reply]
["> 100 µM", "> 100 µM"]
